All values here come from ChEMBL document CHEMBL1142238.

# EXPERIMENTAL SYSTEM: Bifunctional dihydrofolate reductase-thymidylate synthase (Toxoplasma gondii, UniProt Q07422)
# Sequence (Q07422 whole entry): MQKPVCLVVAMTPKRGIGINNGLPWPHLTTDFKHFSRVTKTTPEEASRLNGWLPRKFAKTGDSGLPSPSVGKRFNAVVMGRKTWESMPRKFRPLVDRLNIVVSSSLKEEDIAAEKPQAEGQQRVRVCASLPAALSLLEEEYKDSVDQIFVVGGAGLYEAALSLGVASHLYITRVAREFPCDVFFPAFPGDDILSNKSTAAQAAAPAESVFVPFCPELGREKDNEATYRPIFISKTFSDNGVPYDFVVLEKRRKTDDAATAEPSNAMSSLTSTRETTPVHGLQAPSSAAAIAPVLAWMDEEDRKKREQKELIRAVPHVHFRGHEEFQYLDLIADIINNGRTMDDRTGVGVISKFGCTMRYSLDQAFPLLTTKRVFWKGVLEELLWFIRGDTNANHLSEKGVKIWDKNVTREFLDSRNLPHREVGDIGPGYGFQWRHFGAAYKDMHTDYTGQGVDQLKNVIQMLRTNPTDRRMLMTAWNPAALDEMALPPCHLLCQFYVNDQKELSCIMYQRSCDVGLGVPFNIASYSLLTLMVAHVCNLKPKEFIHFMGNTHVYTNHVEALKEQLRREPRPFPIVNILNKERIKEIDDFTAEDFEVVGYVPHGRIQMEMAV
# EXPERIMENT SUMMARY: Inhibition of Toxoplasma gondii DHFR-TS
READOUT KIND: IC50 (nM)
Return type: number; implicit unit nM.

These recorded examples may help you get a feel for the data.
COMPOUND: COc1cc(CC#Cc2cnc(N)nc2N)cc(OC)c1OC
IC50 / nM: 21700
--
COMPOUND: COc1cc(C(O)C#Cc2c(C)nc(N)nc2N)cc(OC)c1OC (stereo not given)
IC50 / nM: 9100
--
COMPOUND: COc1cc(CCc2cnc(N)nc2N)cc(OC)c1OC
IC50 / nM: 90200
--
COMPOUND: COc1cc([C@H](C)C#Cc2c(C)nc(N)nc2N)cc(OC)c1OC
IC50 / nM: 13
--
COMPOUND: COc1cc(C(C#Cc2c(C)nc(N)nc2N)OC)cc(OC)c1OC (stereo not given)
IC50 / nM: 550

Asked: Which measured IC50 value corresponds to COc1cc(C(C)C#Cc2c(C)nc(N)nc2N)cc(OC)c1OC (stereo not given) ?
Given back: 120

Asked: And what about the compound COc1cc(C(C#Cc2cnc(N)nc2N)OC)cc(OC)c1OC (stereo not given) ?
Given back: 9800

Asked: And what about the compound COc1cc(CC#Cc2c(C)nc(N)nc2N)cc(OC)c1OC ?
Given back: 880

Asked: And what about the compound COc1cc([C@@H](C)C#Cc2c(C)nc(N)nc2N)cc(OC)c1OC ?
Given back: 1.4

Asked: And what about the compound COc1cc(C(C)C#Cc2cnc(N)nc2N)cc(OC)c1OC (stereo not given) ?
Given back: 3100
